Protein kinase C alpha type (Homo sapiens, UniProt P17252) Ki, compiled from various sources.
QUANTITY_KIND: Ki

{"COMPOUND": "NCCCNc1ncc2[nH]c(=O)n(Cc3c(Cl)cccc3Cl)c2n1", "RECORDED_MEASUREMENT": "> 10000 nM"}
{"COMPOUND": "Cn1cc(-c2cnc(N)c(C(=O)c3cccc(N4CCCNCC4)n3)c2)c2ccccc21", "RECORDED_MEASUREMENT": "< 50 nM"}
{"COMPOUND": "CC[C@@H]1CN(c2cccc(-c3n[nH]c4ncccc34)n2)C[C@H](CC(C)C)N1", "RECORDED_MEASUREMENT": "< 2800 nM"}
{"COMPOUND": "CCC(C)(C)C(N)C1CCCN(c2ccc(F)c(-c3n[nH]c4ncccc34)n2)C1 (stereo not shown)", "RECORDED_MEASUREMENT": "> 1250 nM"}
